Where do these numbers come from? They come from patent US9512139B2.

# MEASUREMENT_NOTES: Pharmacokinetic study after single i.v. and p.o. administration in male SD rats
# Assay type: in vivo
# REPORTED_CONDITIONS: male, SD, plasma; rat, iv, 1 mg/kg
A collection of compounds and their measured Cmax
API: value field is a number in ng/mL; no unit string.

Record excerpt, results attached:
1. CN1CCC[C@H](N)C(=O)N2C[C@@H](Oc3ccccc3)C[C@H]2COc2cccc(c2)C1=O [Ex. 561] = 184
2. CN1CCC[C@H](NC(=O)CC(C)(C)C)C(=O)N2C[C@@H](O)C[C@H]2COc2cccc(c2)C1=O [Ex. 571] = 644

Now turn to the next compound.
Look up Cmax for this compound: CN1CCC[C@H](N)C(=O)N2C[C@@H](OCc3ccccc3)C[C@H]2COc2cccc(c2)C1=O [Ex. 568]
195
